Data origin: ChEMBL document CHEMBL3272143

tested on: Canis familiaris; test: Inhibition of isoproterenol-induced decrease in diastolic blood pressure in bilaterally vagotomized open chest mongrel dog model at 0.1 mg/kg, iv administered 10 to 20 mins prior to and following isoproterenol challenge; type: functional; details: Canis lupus familiaris, Artery
Answer Not satisfied if inhibition in vivo at 0.1 mg/kg is under 7%, and Satisfied if it is 7% or more.

Worked examples, 4 compounds total:
I'd appreciate it if you could say whether CC(C)(C)NCC(O)COc1nc(-c2ccccc2)ns1 (stereo not given) has inhibition in vivo at 0.1 mg/kg at least equal to 7%.
Not satisfied

I'd appreciate it if you could say whether Cc1nsc(OCC(O)CNC(C)(C)C)n1 (stereo not given) has inhibition in vivo at 0.1 mg/kg at least equal to 7%.
Satisfied

I'd appreciate it if you could say whether CC(C)(C)NCC(O)COc1ncns1 (stereo not given) has inhibition in vivo at 0.1 mg/kg at least equal to 7%.
Not satisfied

I'd appreciate it if you could say whether CC(C)NCC(O)COc1cc(Cl)nc(-c2ccccc2)n1 (stereo not given) has inhibition in vivo at 0.1 mg/kg at least equal to 7%.
Not satisfied

Moving on to another compound below.
I'd appreciate it if you could say whether CC(C)(C)NCC(O)COc1nnnn1-c1ccccc1 (stereo not given) has inhibition in vivo at 0.1 mg/kg at least equal to 7%.
Not satisfied

----------
tested on: Canis familiaris; experiment: Inhibition of isoproterenol-induced increase in heart rate in bilaterally vagotomized open chest mongrel dog model at 0.1 mg/kg, iv administered 10 to 20 mins prior to and following isoproterenol challenge; format: functional; settings: Canis lupus familiaris
measuredEndpoint: inhibition in vivo at 0.1 mg/kg (%)
Provide only the numeric value, understood in %.

Consider the reported inhibition in vivo at 0.1 mg/kg for these compounds:
# input compound: Cc1nsc(OCC(O)CNC(C)(C)C)n1 (stereo not given) ; wanted: its inhibition in vivo at 0.1 mg/kg
15

# input compound: CC(C)NCC(O)COc1cc(Cl)nc(-c2ccccc2)n1 (stereo not given) ; wanted: its inhibition in vivo at 0.1 mg/kg
3

# input compound: CC(C)(C)NCC(O)COc1ncns1 (stereo not given) ; wanted: its inhibition in vivo at 0.1 mg/kg
23.5

Further cases:
# input compound: CC(C)(C)NCC(O)COc1nnnn1-c1ccccc1 (stereo not given) ; wanted: its inhibition in vivo at 0.1 mg/kg
5.7

# input compound: CC(C)(C)NCC(O)COc1nc(-c2ccccc2)ns1 (stereo not given) ; wanted: its inhibition in vivo at 0.1 mg/kg
7

----------
test system: Canis familiaris; assay: Inhibition of isoproterenol-induced increase in heart rate in bilaterally vagotomized open chest mongrel dog model at 14.58 mg/kg, iv administered 10 to 20 mins prior to and following isoproterenol challenge; type: functional; conditions: Canis lupus familiaris
measuredEndpoint: inhibition in vivo at 14.58 mg/kg (%)
Provide only the numeric value, understood in %.

Consider the reported inhibition in vivo at 14.58 mg/kg for these compounds:
# input compound: CC(C)(C)NCC(O)COc1nc(-c2ccccc2)ns1 (stereo not given) ; wanted: its inhibition in vivo at 14.58 mg/kg
68

# input compound: CC(C)(C)NCC(O)COc1nnnn1-c1ccccc1 (stereo not given) ; wanted: its inhibition in vivo at 14.58 mg/kg
91

# input compound: CC(C)NCC(O)COc1cc(Cl)nc(-c2ccccc2)n1 (stereo not given) ; wanted: its inhibition in vivo at 14.58 mg/kg
49

# input compound: CC(C)(C)NCC(O)COc1ncns1 (stereo not given) ; wanted: its inhibition in vivo at 14.58 mg/kg
97.5

Further cases:
# input compound: Cc1nsc(OCC(O)CNC(C)(C)C)n1 (stereo not given) ; wanted: its inhibition in vivo at 14.58 mg/kg
92.3
